- Tested on: Genome polyprotein (Dengue virus type 2 (strain 16681-PDK53)) (UniProt P29991)
- Test protocol: flavivirus cap methylation enzyme inhibition – biochemical, confirmation dose response, primary screen (AID 588689)
- Run conditions: Dengue-2 NS5 methyltransferase capping enzyme assay, at 25 µM, stronger effect = higher value
Screen size: about 340,000 compounds; about 1,000 (0.29%) were called active. These entries were drawn from the full list. Results with a measured potency or affinity are listed apart.
Reported metric: inhibition

Solved entries:
>>> reported_measurement("Cc1nc(-c2ccccc2)sc1C(=O)Nc1ccccc1F")
"0% (inactive)"
>>> reported_measurement("CCCCCSc1nncc(=O)[nH]1")
"4.01% (inactive)"
>>> reported_measurement("CN=c1scc(-c2ccco2)n1/N=C/c1ccc(O)c(O)c1")
"-2.15% (inactive)"
>>> reported_measurement("COc1cc(/C=C2/SC(=O)NC2=O)ccc1Oc1ccc([N+](=O)[O-])cc1[N+](=O)[O-]")
"23.6% (inactive)"
>>> reported_measurement("O=C1/C(=C\\c2cccc(O)c2)SC(=S)N1Cc1ccccc1")
"-14.8% (inactive)"

Hello, I am looking for reported inhibition with Genome polyprotein (Dengue virus type 2 (strain 16681-PDK53)) (UniProt P29991) for COC(=O)c1sc(N)c(C(=O)OC)c1COC(=O)CNS(=O)(=O)c1cccc(C#N)c1 . Could you help? -1.45% (inactive)

----------
- Tested on: Genome polyprotein (Dengue virus type 2 (strain 16681-PDK53)) (UniProt P29991)
- Test protocol: flavivirus cap methylation enzyme inhibition – biochemical, confirmation dose response, primary screen (AID 588689)
- Run conditions: Dengue-2 NS5 methyltransferase capping enzyme assay, at 25 µM, stronger effect = higher value
Screen size: about 340,000 compounds; about 1,000 (0.29%) were called active. Only a sample is shown. Measured potencies and affinities stand elsewhere.
Reported metric: inhibition

>>> reported_measurement("COc1cc(NC(=S)NN2CCN(C)CC2)cc(OC)c1")
"-3.9% (inactive)"

Given the compound Cc1cccc(-n2cc(-c3ccc([N+](=O)[O-])cc3)[nH]c2=S)c1 , what is its reported inhibition? -5.13% (inactive)

Given the compound Cc1ccc(-n2cc3ccc([N+](=O)[O-])cc3n2)cc1 , what is its reported inhibition? -5.66% (inactive)

Given the compound Cn1c2nc(=O)[nH]c(=O)c-2cc2ccccc21 , what is its reported inhibition? -2.42% (inactive)

Given the compound CCN1CCN(CCCNC(=O)CNC(=O)c2nn(-c3ccc(OC)cc3)c(=O)c3ccccc23)CC1 , what is its reported inhibition? 0.79% (inactive)

Given the compound Cn1c(SCC(=O)Nc2ccccc2)nc2c([nH]c3ccccc32)c1=O , what is its reported inhibition? -11.1% (inactive)

Given the compound Cc1ccc(S(=O)(=O)n2cnc3cc([N+](=O)[O-])ccc32)cc1C , what is its reported inhibition? 0.8% (inactive)

Given the compound Cc1ccc(-n2c(C)nn(Cc3ccc([N+](=O)[O-])cc3)c2=O)cc1 , what is its reported inhibition? -7.53% (inactive)

----------
- Tested on: Genome polyprotein (Dengue virus type 2 (strain 16681-PDK53)) (UniProt P29991)
- Test protocol: flavivirus cap methylation enzyme inhibition – biochemical, confirmation dose response, primary screen (AID 588689)
- Run conditions: Dengue-2 NS5 methyltransferase capping enzyme assay, at 25 µM, stronger effect = higher value
Hit rate of the full screen: of about 340,000 compounds, about 1,000 (0.29%) were called active. These entries were drawn from the full list. Entries with a potency or affinity are not part of this list.
Let's look at some compounds and their measured inhibition.
Enter your answer as a number in %; do not include the unit.

>>> reported_measurement("CSc1nnc(C)c(=O)n1COC(=O)COc1ccccc1F")
9.2

Given the compound CCOCCCNC(=O)CCc1nnc2n(CCC(C)C)c(=O)c3ccccc3n12 , what is its reported inhibition? -4.57

Given the compound O=C1CC(Sc2ncccc2C(=O)O)C(=O)N1 (stereo unspecified) , what is its reported inhibition? 6.1

Given the compound NS(=O)(=O)c1ccc(NC(=O)Cc2cccs2)cc1 , what is its reported inhibition? 0

Given the compound COc1ccc(CCNC(=O)CN(c2cc(OC)ccc2OC)S(=O)(=O)c2ccccc2)cc1 , what is its reported inhibition? -15.3

Given the compound Cn1nc(C(=O)NCc2cccc(Cl)c2)c2c1-c1ccccc1S(=O)(=O)C2 , what is its reported inhibition? 5.32

----------
- Tested on: Genome polyprotein (Dengue virus type 2 (strain 16681-PDK53)) (UniProt P29991)
- Test protocol: flavivirus cap methylation enzyme inhibition – biochemical, confirmation dose response, primary screen (AID 588689)
- Run conditions: Dengue-2 NS5 methyltransferase capping enzyme assay, at 25 µM, stronger effect = higher value
About 1,000 (0.29%) of roughly 340,000 compounds were called active. These entries were drawn from the full list. Results with a measured potency or affinity are listed apart.
Threshold check on inhibition: at or above 10% gives Condition met, strictly below gives Condition not met.

Worked cases, answers included:
>>> class_label("CC1CCCN(C(=O)CCNC(=O)Cn2cnc3ccccc3c2=O)C1 (centres undefined)")
"Condition not met"
>>> class_label("COc1ccc2cc(/C=N/NC(=O)CSCc3ccc([N+](=O)[O-])cc3)c(Cl)nc2c1")
"Condition not met"
>>> class_label("CCOC(=O)CSc1nnc(-c2cccs2)n1-c1ccccc1")
"Condition not met"
>>> class_label("CN1C(=O)N(c2ccc(Cl)cc2)C(C)(O)CC1(C)C (centres undefined)")
"Condition not met"
>>> class_label("O=C1CCC[C@@H]2C[C@@]3(C[C@@H]4CCN1[C@H]24)Nc1cc(Cl)ccc1NC3=NCc1ccccc1")
"Condition not met"
>>> class_label("Cc1cc(Br)ccc1SCC(=O)OCC(=O)NCc1ccco1")
"Condition met"

Assess whether reported inhibition for COc1ccc(/C=C2/C(=O)N(c3c(F)c(F)c(F)c(F)c3F)N=C2C)cc1 sits at 10% or higher. Condition met

Assess whether reported inhibition for CCOc1ccc(-c2cccc(NC(=O)COc3ccc(Cl)cc3)c2)nn1 sits at 10% or higher. Condition not met

Assess whether reported inhibition for Cc1nc(SCC(=O)O)c2oc3ccccc3c2n1 sits at 10% or higher. Condition not met

Assess whether reported inhibition for CCCCSc1nc(O)c(C2OC(=O)c3c2ccc(OC)c3OC)c(=O)n1-c1ccccc1 (centres undefined) sits at 10% or higher. Condition met

----------
- Tested on: Genome polyprotein (Dengue virus type 2 (strain 16681-PDK53))
- Test protocol: flavivirus cap methylation enzyme inhibition – biochemical, confirmation dose response, primary screen (AID 588689)
- Run conditions: Dengue-2 NS5 methyltransferase capping enzyme assay, at 25 µM, stronger effect = higher value
The whole screen tested about 340,000 compounds, of which about 1,000 (0.29%) were called active. These entries were drawn from the full list. Potency and affinity values are given separately.
Reported metric: inhibition (%)
Enter your answer as a number in %; do not include the unit.

>>> reported_measurement("O=CN1CCN(C(=S)NC(=O)c2ccc(Cl)cc2)CC1")
-3.86
>>> reported_measurement("O=C1C(=O)c2ccc(-c3ccccc3)cc2-c2ccccc21")
-10.1

Given the molecule CC(C)=CCC(C)(C)C1OCCN1C(=O)c1ccccc1 (stereo unspecified) , what is its reported inhibition? -7.18

Given the molecule CN1CCN(C2=C(Cl)C(=O)N(c3ccc(Cl)cc3)C2=O)CC1 , what is its reported inhibition? 14.2

Given the molecule O=C(COC(=O)c1ccco1)NCc1ccccc1Cl , what is its reported inhibition? 3.03

----------
- Tested on: Genome polyprotein (Dengue virus type 2 (strain 16681-PDK53)) (UniProt P29991)
- Test protocol: flavivirus cap methylation enzyme inhibition – biochemical, confirmation dose response, primary screen (AID 588689)
- Run conditions: Dengue-2 NS5 methyltransferase capping enzyme assay, at 25 µM, stronger effect = higher value
Screen size: about 340,000 compounds; about 1,000 (0.29%) were called active. Not all results are given here. Measured potencies and affinities stand elsewhere.
Reported metric: inhibition (%)
Enter your answer as a number in %; do not include the unit.

>>> reported_measurement("CCOc1cc(/C=C2\\C(=O)ON=C2C)ccc1OCc1ccccc1")
-8.01

Given the compound CSc1ccc(CN(C)C(=O)c2ccc(S(=O)(=O)Nc3c(C)n(C)n(-c4ccccc4)c3=O)cc2)cc1 , what is its reported inhibition? -9.48

----------
Let's look at some compounds and their measured inhibition.
- Tested on: Genome polyprotein (Dengue virus type 2 (strain 16681-PDK53))
- Test protocol: flavivirus cap methylation enzyme inhibition – biochemical, confirmation dose response, primary screen (AID 588689)
- Run conditions: Dengue-2 NS5 methyltransferase capping enzyme assay, at 25 µM, stronger effect = higher value
The campaign covered roughly 340,000 compounds. About 1,000 (0.29%) were called active. The list is a sample of the results. Potency and affinity values are given separately.
Enter your answer as a number in %; do not include the unit.

>>> reported_measurement("O=Cc1c(Cl)cccc1Cl")
0

Hello, I am looking for reported inhibition with Genome polyprotein (Dengue virus type 2 (strain 16681-PDK53)) for C=CCOC(=O)C(=O)/C=C/c1csc2ccccc12 . Could you help? 23.7

Hello, I am looking for reported inhibition with Genome polyprotein (Dengue virus type 2 (strain 16681-PDK53)) for COc1cc(C(=O)O)ccc1Cl . Could you help? -1.59
